# tested.system: Bile acid receptor (Homo sapiens)
# assay.procedure: Agonist activity at human […] FXR LBD expressed in HEK293 cells coexpressing GAL4-DNA bindig domain and pFRluc by mammalian one-hybrid assay relative to GW-4064
# Format: functional, cell-based
measured.attribute: Efficacy (%)
Form entry: value (%) — number only.

Examples with answers:
compound: CC(C)c1onc(-c2c(Cl)cccc2Cl)c1COc1ccc(N(C)Cc2ccc(OCCO)cc2)c(C(F)(F)F)n1
tested.system: Bile acid receptor (Homo sapiens)
measured.attribute: Efficacy
result.unit: %
reported: 43
--
compound: CCN(Cc1ccc(C(=O)O)cc1)c1ccc(OCc2c(-c3c(Cl)cccc3Cl)noc2C2CC2)nc1C(F)(F)F
tested.system: Bile acid receptor (Homo sapiens)
measured.attribute: Efficacy
result.unit: %
reported: 54
--
compound: CC(C)c1onc(-c2c(Cl)cccc2Cl)c1COc1ccc(N(C)Cc2cccc(C(=O)NS(C)(=O)=O)c2)c(C(F)(F)F)n1
tested.system: Bile acid receptor (Homo sapiens)
measured.attribute: Efficacy
result.unit: %
reported: 59

Would you kindly share the measured Efficacy for `Cc1nc(OCc2c(-c3c(Cl)cccc3Cl)noc2C(C)C)ccc1N(C)C(=O)c1ccc(C(=O)O)cc1` ?
21

Tell me the measured Efficacy of `O=C(O)c1cccc(OCc2ccc(OCc3c(-c4c(Cl)cccc4Cl)noc3C3CC3)nc2C(F)(F)F)c1` , please.
62

Would you kindly share the measured Efficacy for `CC(C)c1onc(-c2c(Cl)cccc2Cl)c1COc1ccc(N(C)Cc2ccc(C(=O)NS(C)(=O)=O)cc2)c(C(F)(F)F)n1` ?
64

Look at this compound and give its reported Efficacy. `CC(C)c1onc(-c2c(Cl)cccc2Cl)c1COc1ccc(N(C)Cc2cccc(C(=O)NCCOP(=O)(O)O)c2)c(C(F)(F)F)n1`
48

For the compound `CC(C)c1onc(-c2c(Cl)cccc2Cl)c1COc1ccc(N(C)Cc2ccc(C(=O)O)cc2)c(C(F)(F)F)n1` , what Efficacy is on record?
75

Given the entry `CC(C)c1onc(-c2c(Cl)cccc2Cl)c1COc1ccc(N(C)C(=O)c2ccc(C(=O)O)cc2)c(C(F)(F)F)n1` , report its measured Efficacy.
36

* * *

# tested.system: Bile acid receptor (Homo sapiens)
# assay.procedure: Agonist activity at human full length FXR transfected in HEK293 cells coexpressing pTRexDest/pGL2promotor assessed as luciferase activity by direct reporter cellular assay relative to GW-4064
# Format: functional, cell-based
measured.attribute: Efficacy (%)
Give just the number in %; leave the unit off.

Recorded results for 4 compounds are shown here.
compound: Cc1cc(OCc2c(-c3c(Cl)cccc3Cl)noc2C(C)C)nc2ccccc12
measured.attribute: Efficacy
reported: 68
--
compound: O=C(O)c1ccc(OCc2ccc(OCc3c(-c4c(Cl)cccc4Cl)noc3C3CC3)nc2C(F)(F)F)cc1
measured.attribute: Efficacy
reported: 42
--
compound: CN(Cc1ccc(C(=O)O)cc1)c1ccc(OCc2c(-c3c(Cl)cccc3Cl)noc2C2CC2)nc1C(F)(F)F
measured.attribute: Efficacy
reported: 60
--
compound: CC(C)c1onc(-c2c(Cl)cccc2Cl)c1COc1ccc(NC(=O)c2ccc(C(=O)O)cc2)c(C(F)(F)F)n1
measured.attribute: Efficacy
reported: 48

Fill in the blank: the reported Efficacy of CC(Nc1ccc(C(=O)O)cc1)c1ccc(OCc2c(-c3c(Cl)cccc3Cl)noc2C2CC2)nc1C(F)(F)F (stereo not drawn) is ____.
49
